Exercise: for every item that follows, state its recorded RBC LYSIS (%) (100 μG/ML).
System: human red blood cells
Experiment: Hemolysis assay
Format: cell-based
No end group written: not given here.
Could you give me the number in %? Just the number is fine.

Req: Need RBC LYSIS (%) (100 μG/ML) of KWKLYKKLLKKLLKSAKKLG [analog N] , thanks.
Resp: 7.5

Req: # iterate: ALYKKIIKKLLESAKKLG [analog H]
Resp: 1.5

Req: # iterate: AKKLAKLYKKLLKKLLKSAKKLG [analog J]
Resp: 2.5

Req: # iterate: ALYRRLLRRLLRSARRLG [analog HH]
Resp: 3

Req: # iterate: ALYKKLLKKLLKFAKKFG [analog P]
Resp: 21
